- MEASUREMENT_NOTES: Cmax in CD-1 mouse at 5.2 mg/kg, po measured within 6 hrs by LC-MS/MS analysis
- Assay type: ADME, organism-based
- Set-up: dose 5.2 mg/kg, route oral
- STUDY_CONDITIONS: in vivo
Listed here are compounds together with their documented Cmax.
Include the unit right after the number.

>  <INPUT_SMILES>
O=C(NO)c1ccc(Cn2nnnc2-c2cccs2)cc1

>  <Cmax>
238 ng/mL

$$$$

Continue with the compound presented below.
Fill in: Cmax of Cn1c(Sc2ccc(C(=O)NO)cc2)nnc1-c1cccs1 is ___
144 ng/mL

---

- Tested on: 697
- MEASUREMENT_NOTES: Cytotoxicity against human 697 cells after 48 hrs by CellTiter 96 aqueous one solution assay
- Type: cell-based
- STUDY_CONDITIONS: Homo sapiens, 697, 48 h
QUANTITY_NAME: IC50

Below, 5 compounds whose answers are already recorded.
>  <INPUT_SMILES>
COc1ccc(CC(=O)N[C@@H](Cc2cscn2)C(=O)Nc2ccc(C(=O)NO)cc2)cc1OC

>  <EXPERIMENTAL_TARGET>
697

>  <IC50>
> 10000 nM

$$$$
>  <INPUT_SMILES>
Cn1c(Sc2c(F)cc(C(=O)NO)cc2F)nnc1-c1ncccc1F

>  <EXPERIMENTAL_TARGET>
697

>  <IC50>
> 1000 nM

$$$$
>  <INPUT_SMILES>
O=C(NO)c1cc(F)c(Cn2nnc(-c3ccccn3)n2)c(F)c1

>  <EXPERIMENTAL_TARGET>
697

>  <IC50>
> 1000 nM

$$$$
>  <INPUT_SMILES>
O=C(NO)c1cc(F)c(Cn2nnc(-c3ncccn3)n2)c(F)c1

>  <EXPERIMENTAL_TARGET>
697

>  <IC50>
> 1000 nM

$$$$
>  <INPUT_SMILES>
O=C(NO)c1ccc(Cn2nnc(-c3ncccn3)n2)cc1

>  <EXPERIMENTAL_TARGET>
697

>  <IC50>
> 1000 nM

$$$$

Fill in: IC50 of CCCCN(Cc1ccc(C(=O)NO)cc1)C(=O)Nc1ccccc1 is ___
401 nM

Fill in: IC50 of O=C(NO)c1ccc(CC(=O)N(CCO)c2ccccc2)cc1 is ___
8330 nM

Fill in: IC50 of Cn1c(Sc2ccc(C(=O)NO)cc2)nnc1-c1cccs1 is ___
> 1000 nM

Fill in: IC50 of O=C(NO)c1ccc(Cn2nnnc2-c2cccs2)cc1 is ___
> 1000 nM
